target: UniProt Q15878; assay: Human Cav2.3 channel calcium-influx assay; format: cell-based; details: HEK-293 T-Rex/Kir2.1/Cav2.3e-β4-α2δ1 cells, Fluo8 fluorescence, without pluronic acid; read-out: Cav2.3 (pIC50) (converted)
experimentalEndpoint: IC50 (µM)

Below, each entry is followed by its recorded IC50 result.
molecule="CCC1CC2(CCC2)CN1S(=O)(=O)c1ccc2ccsc2c1 (stereo not shown)" resultunits=µM endpointvalue=3.8
molecule="CCC1CC2(CCC2)CN1S(=O)(=O)c1cccs1 (single isomer, unassigned) [Example 71]" resultunits=µM endpointvalue=1.17
molecule="CC1CC2(CCC2)CN1S(=O)(=O)c1ccc2c(c1)CCN(Cc1ccccc1)C2 (stereo not shown)" resultunits=µM endpointvalue=2.95
molecule="COCC1CC2(CCC2)CN1S(=O)(=O)c1cccs1 (stereo not shown)" resultunits=µM endpointvalue=10.2
molecule="CCC1CC2(CCC2)CN1S(=O)(=O)c1ccc2ccoc2c1 (stereo not shown)" resultunits=µM endpointvalue=2.4
molecule="CC1CC2(CCC2)CN1S(=O)(=O)c1ccc2ccoc2c1 (single isomer, unassigned) [Example 16]" resultunits=µM endpointvalue=4.79
molecule="CC1CC2(CCC2)CN1S(=O)(=O)c1cccs1 (single isomer, unassigned) [Example 104]" resultunits=µM endpointvalue=1.41
molecule="Cc1ccnc2cc(S(=O)(=O)N3CC4(CCC4)CC3C)ccc12 (single isomer, unassigned) [Example 82]" resultunits=µM endpointvalue=10.7
molecule="Cc1ccnc2cc(S(=O)(=O)N3CC4(CCC4)CC3C)ccc12 (single isomer, unassigned) [Example 81]" resultunits=µM endpointvalue=4.57
molecule="CC1CC2(CCC2)CN1S(=O)(=O)c1ccc(C#N)s1 (single isomer, unassigned) [Example 9]" resultunits=µM endpointvalue=7.94

1: CC1CC2(CCC2)CN1S(=O)(=O)c1ccccc1 (stereo not shown) [Example 45]
2: CCC1CC2(CCC2)CN1S(=O)(=O)c1ccnc(OC)c1 (stereo not shown)
Param metric = IC50; output whichever of 1 , 2 has the minimum value. Please reply using the label of the selected record.
2

---

target: Cav2.3 (Homo sapiens); assay: Human Cav2.3 channel calcium-influx assay; format: cell-based; conditions: HEK-293 T-Rex/Kir2.1/Cav2.3e-β4-α2δ1 cells, Fluo8 fluorescence, without pluronic acid; read-out: Cav2.3 (pIC50) (converted)
Sequence (Q15878 1-747 limits assumed): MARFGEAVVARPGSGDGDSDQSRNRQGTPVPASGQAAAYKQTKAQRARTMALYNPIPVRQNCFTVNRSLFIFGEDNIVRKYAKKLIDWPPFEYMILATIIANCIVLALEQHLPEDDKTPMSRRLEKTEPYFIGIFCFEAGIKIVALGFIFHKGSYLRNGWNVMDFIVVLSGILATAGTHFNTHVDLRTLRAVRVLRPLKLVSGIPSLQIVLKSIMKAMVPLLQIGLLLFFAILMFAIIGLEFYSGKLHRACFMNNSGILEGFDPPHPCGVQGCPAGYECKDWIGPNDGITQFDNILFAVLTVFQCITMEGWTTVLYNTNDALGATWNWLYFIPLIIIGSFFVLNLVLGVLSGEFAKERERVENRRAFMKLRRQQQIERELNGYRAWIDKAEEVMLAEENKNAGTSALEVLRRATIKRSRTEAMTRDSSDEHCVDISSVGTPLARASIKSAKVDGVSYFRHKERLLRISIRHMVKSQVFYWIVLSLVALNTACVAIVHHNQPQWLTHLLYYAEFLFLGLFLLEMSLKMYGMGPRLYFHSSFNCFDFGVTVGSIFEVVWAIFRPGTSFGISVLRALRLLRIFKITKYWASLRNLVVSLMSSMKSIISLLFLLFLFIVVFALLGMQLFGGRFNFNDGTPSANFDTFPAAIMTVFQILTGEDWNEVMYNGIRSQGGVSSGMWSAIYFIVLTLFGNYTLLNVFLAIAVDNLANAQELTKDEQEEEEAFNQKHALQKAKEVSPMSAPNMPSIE
Sequence (Q15878 1126-2313 limits assumed): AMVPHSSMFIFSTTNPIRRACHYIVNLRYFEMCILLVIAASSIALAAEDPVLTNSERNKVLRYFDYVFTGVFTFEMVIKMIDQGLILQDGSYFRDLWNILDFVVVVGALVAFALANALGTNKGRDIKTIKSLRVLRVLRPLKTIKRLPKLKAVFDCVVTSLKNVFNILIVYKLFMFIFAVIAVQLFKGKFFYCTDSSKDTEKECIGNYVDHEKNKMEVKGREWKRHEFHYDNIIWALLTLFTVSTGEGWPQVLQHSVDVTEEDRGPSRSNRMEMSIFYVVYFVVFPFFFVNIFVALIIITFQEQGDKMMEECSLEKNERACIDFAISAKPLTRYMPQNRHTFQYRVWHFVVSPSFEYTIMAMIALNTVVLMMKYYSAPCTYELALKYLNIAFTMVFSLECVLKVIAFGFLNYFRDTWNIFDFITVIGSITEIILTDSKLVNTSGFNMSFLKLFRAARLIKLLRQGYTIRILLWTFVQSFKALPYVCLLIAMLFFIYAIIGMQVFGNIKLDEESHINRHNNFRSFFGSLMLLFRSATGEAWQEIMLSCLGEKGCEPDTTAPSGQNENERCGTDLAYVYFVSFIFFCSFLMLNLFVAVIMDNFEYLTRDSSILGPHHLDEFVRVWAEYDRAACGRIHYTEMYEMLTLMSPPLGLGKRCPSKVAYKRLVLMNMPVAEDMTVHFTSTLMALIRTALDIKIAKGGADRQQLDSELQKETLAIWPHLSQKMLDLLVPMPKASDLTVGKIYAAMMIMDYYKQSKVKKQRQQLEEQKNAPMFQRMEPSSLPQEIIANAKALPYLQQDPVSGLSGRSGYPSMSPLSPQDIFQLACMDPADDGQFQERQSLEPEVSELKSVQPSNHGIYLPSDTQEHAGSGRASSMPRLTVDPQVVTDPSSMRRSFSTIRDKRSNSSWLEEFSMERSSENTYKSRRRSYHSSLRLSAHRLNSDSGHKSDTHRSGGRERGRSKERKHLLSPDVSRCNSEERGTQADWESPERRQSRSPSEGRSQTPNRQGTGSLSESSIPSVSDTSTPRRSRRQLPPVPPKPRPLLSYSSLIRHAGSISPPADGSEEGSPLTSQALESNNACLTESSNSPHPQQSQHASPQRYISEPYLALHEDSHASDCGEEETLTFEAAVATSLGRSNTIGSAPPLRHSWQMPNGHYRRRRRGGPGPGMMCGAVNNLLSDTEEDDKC
experimentalEndpoint: IC50 (µM)

compound="CC1CC2(CCC2)CN1S(=O)(=O)c1ccc2[nH]c(=O)[nH]c2c1 (stereo not shown)" endpointvalue=11.2
compound="CC1CC2(CCC2)CN1S(=O)(=O)Cc1ccccc1 (stereo not shown)" endpointvalue=4.27
compound="CC1CC2(CCC2)CN1S(=O)(=O)c1cncs1 (stereo not shown)" endpointvalue=3.98
compound="CC1CC2(CCC2)CN1S(=O)(=O)c1ccccn1 (stereo not shown)" endpointvalue=15.8
compound="CC1CC2(CCC2)CN1S(=O)(=O)c1ccco1 (single isomer, unassigned) [Example 37]" endpointvalue=7.94

I: CC(=O)N1CCc2ccc(S(=O)(=O)N3CC4(CCC4)CC3C)cc2C1 (stereo not shown)
II: Cc1ccc(S(=O)(=O)N2CC3(CCC3)CC2C)s1 (stereo not shown) [Example 76]
III: CC1CC2(CCC2)CN1S(=O)(=O)c1ccc(Cl)s1 (stereo not shown)
IV: CC(C)Oc1cc(S(=O)(=O)N2CC3(CCC3)CC2C)ccn1 (stereo not shown)
Please put the entries in order of rising IC50. Response field: labels, in requested order.
I, IV, II, III
